# tested_system: AHR (Homo sapiens, UniProt P35869)
# Construct: endogenous in cells; host or cells: HepG2 (human), transfected with a DRE-luciferase reporter only
# Sequence (P35869 11-848): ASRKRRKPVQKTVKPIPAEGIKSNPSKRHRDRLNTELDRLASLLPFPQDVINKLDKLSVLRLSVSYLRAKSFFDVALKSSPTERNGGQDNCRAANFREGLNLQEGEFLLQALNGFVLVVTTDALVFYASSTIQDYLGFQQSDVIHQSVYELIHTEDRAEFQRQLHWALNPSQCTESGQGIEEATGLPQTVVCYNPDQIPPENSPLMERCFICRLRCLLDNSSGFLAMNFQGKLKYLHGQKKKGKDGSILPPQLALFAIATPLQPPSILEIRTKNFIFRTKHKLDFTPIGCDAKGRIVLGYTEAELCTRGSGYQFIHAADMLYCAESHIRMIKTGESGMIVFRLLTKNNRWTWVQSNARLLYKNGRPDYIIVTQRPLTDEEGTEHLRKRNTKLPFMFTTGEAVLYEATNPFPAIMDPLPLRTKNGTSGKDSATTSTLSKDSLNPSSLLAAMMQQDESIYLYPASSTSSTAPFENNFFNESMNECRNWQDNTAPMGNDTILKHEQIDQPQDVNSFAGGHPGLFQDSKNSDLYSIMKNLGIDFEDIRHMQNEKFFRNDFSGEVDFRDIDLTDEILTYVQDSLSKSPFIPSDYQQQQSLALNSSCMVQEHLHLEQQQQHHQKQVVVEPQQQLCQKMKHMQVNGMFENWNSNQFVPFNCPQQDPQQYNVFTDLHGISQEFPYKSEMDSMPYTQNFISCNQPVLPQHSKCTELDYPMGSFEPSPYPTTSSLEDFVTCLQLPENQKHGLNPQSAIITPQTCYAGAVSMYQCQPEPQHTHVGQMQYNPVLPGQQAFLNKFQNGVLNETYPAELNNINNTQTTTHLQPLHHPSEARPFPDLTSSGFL
# method_summary: DRE-Luciferase Reporter Assay, HepG2 (agonist)
# Assay type: cell-based
# condition_summary: HepG2, Table 2; read-out: DRE-Luc HepG2 - Agonist: Average EC50
property: EC50

Task item: Quick one: EC50 for C[N+](C)(C)CCOc1cccc(-c2cnc(Nc3ccc(C(F)(F)F)cc3)o2)c1 ?
Reply: > 1000 nM

Task item: Quick one: EC50 for COc1ccc(-c2csc(Nc3cccc(C(F)(F)F)c3)n2)cc1 ?
Reply: > 1000 nM

Task item: Quick one: EC50 for C[N+](C)(CCO)CCNC(=O)N(c1cccc(C(F)(F)F)c1)c1nc(-c2cccc([N+](=O)[O-])c2)cs1 ?
Reply: < 10 nM

Task item: Quick one: EC50 for O=[N+]([O-])c1cncc(-c2csc(Nc3cccc(C(F)(F)F)c3)n2)c1 ?
Reply: < 10 nM

Task item: Quick one: EC50 for C[N+](C)(C)CCNC(=O)N(c1cccc(C(F)(F)F)c1)c1nc(-c2cccc([N+](=O)[O-])c2)cs1 ?
Reply: < 10 nM

Task item: Quick one: EC50 for C[N+](C)(CCO)CCOC(=O)N(c1cccc(C(F)(F)F)c1)c1nc(-c2cccc(Cl)c2)cs1 ?
Reply: 10 to 100 nM

Task item: Quick one: EC50 for FC(F)(F)c1cccc(Nc2nc(-c3cccc(Br)c3)cs2)c1 ?
Reply: < 10 nM

----------
# tested_system: AHR (Homo sapiens, UniProt P35869)
# Construct: endogenous in cells; host or cells: HepG2 (human), transfected with a DRE-luciferase reporter only
# method_summary: DRE-Luciferase Reporter Assay, HepG2 (agonist)
# Type: cell-based
# condition_summary: HepG2, Table 3; read-out: DRE-Luc HepG2 - Agonist: Average EC50
pEC50: −log10 of the molar value.
property: pEC50

Task item: Quick one: pEC50 for O=C(O)c1cccc(Nc2nc(-c3ccc[n+]([O-])c3)cs2)c1 ?
Reply: < 6.00

Task item: Quick one: pEC50 for O=[N+]([O-])c1cccc(-c2csc(Nc3cccc(S(=O)(=O)O)c3)n2)c1 ?
Reply: < 6.00

Task item: Quick one: pEC50 for C[N+](C)(C)CCCNC(=O)N(c1cccc(C(F)(F)F)c1)c1nc(-c2ccc[n+]([O-])c2)cs1 ?
Reply: < 6.00

Task item: Quick one: pEC50 for NC(=O)c1cccc(-c2csc(Nc3cccc(C(F)(F)F)n3)n2)c1 ?
Reply: > 8.00

Task item: Quick one: pEC50 for O=c1cccc(-c2csc(Nc3cccc(C(F)(F)F)c3)n2)[nH]1 ?
Reply: > 8.00

Task item: Quick one: pEC50 for O=C(Nc1cncc(-c2csc(Nc3cccc(C(F)(F)F)c3)n2)c1)Nc1cncc(-c2csc(Nc3cccc(C(F)(F)F)c3)n2)c1 ?
Reply: 7.00 to 8.00

Task item: Quick one: pEC50 for O=c1cc(-c2cc(Nc3cccc(C(F)(F)F)c3)no2)cc[nH]1 ?
Reply: 6.00 to 7.00

Task item: Quick one: pEC50 for O=c1ccc(-c2csc(Nc3cccc(C(F)(F)F)c3)n2)c[nH]1 ?
Reply: > 8.00

Task item: Quick one: pEC50 for O=C(O)c1cc(-c2csc(Nc3cccc(C(F)(F)F)c3)n2)cc([N+](=O)[O-])c1 ?
Reply: < 6.00

Task item: Quick one: pEC50 for C[N+](C)(C)CCNC(=O)N(c1cccc(C(F)(F)F)c1)c1nc(-c2ccc[n+]([O-])c2)cs1 ?
Reply: 6.00 to 7.00

Task item: Quick one: pEC50 for O=[N+]([O-])c1cccc(-c2csc(Nc3ccc(C(F)(F)F)cc3)n2)c1 ?
Reply: 7.00 to 8.00

Task item: Quick one: pEC50 for N#Cc1cc(-c2csc(Nc3cccc(C(F)(F)F)c3)n2)c[n+]([O-])c1 ?
Reply: > 8.00

Task item: Quick one: pEC50 for CN(C)c1cc(-c2csc(Nc3cccc(C(F)(F)F)c3)n2)ccn1 ?
Reply: 7.00 to 8.00

Task item: Quick one: pEC50 for COC(=O)/C(C)=N/Nc1cccc(-c2csc(Nc3cccc(C(F)(F)F)c3)n2)c1 ?
Reply: 6.00 to 7.00

Task item: Quick one: pEC50 for Nc1cc(-c2csc(Nc3cccc(C(F)(F)F)c3)n2)c(F)cc1F ?
Reply: > 8.00

Task item: Quick one: pEC50 for Nc1ccccc1-c1csc(Nc2cccc(C(F)(F)F)c2)n1 ?
Reply: 7.00 to 8.00

Task item: Quick one: pEC50 for C[N+](C)(CCNC(=O)N(c1cccc(C(F)(F)F)c1)c1nc(-c2cccc([N+](=O)[O-])c2)cs1)CCNC(=O)N(c1cccc(C(F)(F)F)c1)c1nc(-c2cccc([N+](=O)[O-])c2)cs1 ?
Reply: 7.00 to 8.00

Task item: Quick one: pEC50 for C[n+]1cccc(-c2csc(N(C(=O)NCCC[N+](C)(C)C)c3cccc(C(F)(F)F)c3)n2)c1 ?
Reply: 6.00 to 7.00

Task item: Quick one: pEC50 for OCc1cccc(-c2csc(Nc3cccc(C(F)(F)F)c3)n2)c1 ?
Reply: 7.00 to 8.00

Task item: Quick one: pEC50 for CNc1cc(-c2csc(Nc3cccc(C(F)(F)F)c3)n2)ccn1 ?
Reply: > 8.00

Task item: Quick one: pEC50 for CCCOc1cc(-c2csc(Nc3cccc(C(F)(F)F)c3)n2)ccn1 ?
Reply: 7.00 to 8.00

Task item: Quick one: pEC50 for N#Cc1cccc(-c2csc(Nc3cccc(C(=O)O)c3)n2)c1 ?
Reply: < 6.00

Task item: Quick one: pEC50 for COC(=O)c1cccc(Nc2nc(-c3cccc(C#N)c3)cs2)c1 ?
Reply: < 6.00

Task item: Quick one: pEC50 for [O-][n+]1cccc(-c2nsc(Nc3cccc(C(F)(F)F)c3)n2)c1 ?
Reply: > 8.00

Task item: Quick one: pEC50 for O=[N+]([O-])c1cccc(-c2csc(Nc3cccc(C(F)(F)F)n3)n2)c1 ?
Reply: > 8.00

Task item: Quick one: pEC50 for O=[N+]([O-])c1cc(-c2csc(Nc3cccc(C(F)(F)F)c3)n2)c[n+]([O-])c1 ?
Reply: > 8.00

Task item: Quick one: pEC50 for COC(=O)c1cc(C#N)cc(-c2csc(Nc3cccc(C(F)(F)F)c3)n2)c1 ?
Reply: < 6.00

Task item: Quick one: pEC50 for O=c1cc(-n2cnc(Nc3cccc(C(F)(F)F)c3)n2)cc[nH]1 ?
Reply: 7.00 to 8.00

Task item: Quick one: pEC50 for COC(=O)COc1cc(-c2csc(Nc3cccc(C(F)(F)F)c3)n2)ccn1 ?
Reply: > 8.00
